# measurement notes: clinical
# condition description: human, plasma and urine, po, 850 mg
measure name: CL renal (mL/min)
Write the number in mL/min without appending the unit.

Task item: What measured CL renal goes with CN(C)C(=N)N=C(N)N ?
Reply: 736

###

Quick reference for IC50 among some molecules
# target under test: human PMAT (Homo sapiens)
# Sequence (Q7RTT9 whole entry): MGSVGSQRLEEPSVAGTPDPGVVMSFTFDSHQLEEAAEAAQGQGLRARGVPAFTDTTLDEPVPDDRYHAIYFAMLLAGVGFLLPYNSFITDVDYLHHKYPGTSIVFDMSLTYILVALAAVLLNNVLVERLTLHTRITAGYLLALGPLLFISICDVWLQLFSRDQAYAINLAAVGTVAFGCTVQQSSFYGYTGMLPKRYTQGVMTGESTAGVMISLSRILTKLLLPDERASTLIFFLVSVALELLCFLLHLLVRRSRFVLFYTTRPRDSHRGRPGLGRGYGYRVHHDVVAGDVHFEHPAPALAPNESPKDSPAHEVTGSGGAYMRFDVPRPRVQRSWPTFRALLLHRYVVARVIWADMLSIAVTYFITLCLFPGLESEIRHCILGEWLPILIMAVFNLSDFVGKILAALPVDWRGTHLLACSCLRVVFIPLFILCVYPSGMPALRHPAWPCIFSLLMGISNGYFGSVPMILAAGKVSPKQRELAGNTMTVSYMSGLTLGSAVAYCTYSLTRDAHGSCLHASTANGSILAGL
# measurement notes: Inhibition of [14C]-metformin uptake in MDCK-PMAT cells

Example entries and their recorded answers appear below.
CCn1cc(C(=O)O)c(=O)c2cc(F)c(N3CCNCC3)cc21 ... > 160 µM
CNC(=C[N+](=O)[O-])NCCSCc1ccc(CN(C)C)o1 ... > 214 µM
CNC(=C[N+](=O)[O-])NCCSCc1csc(CN(C)C)n1 ... > 115 µM
Cc1nccn1CC1CCc2c(c3ccccc3n2C)C1=O (centres unmarked) ... > 1.32 µM

Now look at this entry.
Task item: Kindly state the measured IC50 obtained for COc1c(N2C[C@@H]3CCCN[C@@H]3C2)c(F)cc2c(=O)c(C(=O)O)cn(C3CC3)c12 with human PMAT (Homo sapiens).
Reply: > 151 µM
